FYI, the data here is from the OligoGym collection.

Target Or Test System: DGAT2
Assay Conditions: ASO, HepG2, 0.12 µM
After the bases stand the sugars from the 5' end (letter, count) and the backbone: PS all phosphorothioate, else s phosphorothioate and o phosphodiester by linkage. Methylation of C is not given here. e = 2'-O-(2-methoxyethyl) (MOE); d = 2'-deoxy (DNA)
# cutoff 40% applies to target mRNA inhibition; >= gives Fulfilled, < gives Not fulfilled

| Item Sequence | Classification |
| --- | --- |
| GCTCAGAGACTCAGCCGCAC (sugars e5 d10 e5, PS) | Fulfilled |
| TGCTGGATCCAGTGCCCCAT (sugars e5 d10 e5, PS) | Fulfilled |
| ACAGGAAGCCTGGTGACTGC (sugars e5 d10 e5, PS) | Fulfilled |
| AGGGAGGCCTTGCACTTACC (sugars e5 d10 e5, PS) | Not fulfilled |
| ACTTCATTCTCTCCAAAGGA (sugars e5 d10 e5, PS) | Fulfilled |
| AGCCTGGACAAGTCCTGCCC (sugars e5 d10 e5, PS) | Fulfilled |
| CTTCTTCTGGACCCATCGGC (sugars e5 d10 e5, PS) | Not fulfilled |
| TTCTGGAACTTCTTCTGGAC (sugars e5 d10 e5, PS) | Not fulfilled |
| ATGGAGCTCAGAGACTCAGC (sugars e2 d13 e5, PS) | Fulfilled |
| AGAAAAACCAGTTACTCCAC (sugars e5 d10 e5, PS) | Not fulfilled |
| TCCGGTCAGCCTCGGCCTGA (sugars e5 d10 e5, PS) | Not fulfilled |
| GTTCCAGTCAAACACCAGCC (sugars e5 d10 e5, PS) | Not fulfilled |
| AGAAGGCACCCAGGCCCATG (sugars e5 d10 e5, PS) | Not fulfilled |
| CCCAGTTTCGGACCCACTGT (sugars e5 d10 e5, PS) | Fulfilled |
| AGAGCCAGCACACAGCTATG (sugars e5 d10 e5, PS) | Not fulfilled |
| GCCTGGACAAGTCCTGCCCA (sugars e2 d13 e5, PS) | Fulfilled |
| TTCCCCAGAGCAGCTCTGAG (sugars e5 d10 e5, PS) | Not fulfilled |
| CCAGTTTCGGACCCACTGTG (sugars e5 d10 e5, PS) | Fulfilled |
| AGGTTGTGTGTCTTCACCAG (sugars e3 d14 e3, PS) | Fulfilled |
| GGCATGGAGCTCAGAGACTC (sugars e2 d13 e5, PS) | Fulfilled |

* * *

Let's look at some sequences and their measured target mRNA inhibition.
Target Or Test System: KRAS
Assay Conditions: ASO, A431, 0.556 µM
After the bases stand the sugars from the 5' end (letter, count) and the backbone: PS all phosphorothioate, else s phosphorothioate and o phosphodiester by linkage. Methylation of C is not given here. e = 2'-O-(2-methoxyethyl) (MOE); k = constrained ethyl (cEt); d = 2'-deoxy (DNA)

| Item Sequence | Value Unit | target mRNA inhibition |
| --- | --- | --- |
| ATTAGTGATTAGGTCA (sugars k3 d10 k3, PS) | % | 37 |
| GTTTATGCAATGTTAA (sugars kkddddddddkekekk, PS) | % | 46 |
| GGTGTAACATAGGTTA (sugars k3 d10 k3, PS) | % | 29 |
| ATGGTGTAACATAGGT (sugars kkddddddddddkeke, PS) | % | 39 |
| AGGAGTCTTTATAGTA (sugars k3 d10 k3, PS) | % | 42 |
| GGAGTCTTTATAGTAA (sugars kkddddddddddkeke, PS) | % | 45 |
| GATGGTGTAACATAGG (sugars k3 d10 k3, PS) | % | 30 |
| TCTGAATTAGTCTCCA (sugars k3 d10 k3, PS) | % | 26 |
| GTGTTTATGCAATGTT (sugars kkkddddddddkdkdk, PS) | % | 47 |

* * *

Target Or Test System: ANGPTL2
Assay Conditions: ASO, 5 µM
After the bases stand the sugars from the 5' end (letter, count) and the backbone: PS all phosphorothioate, else s phosphorothioate and o phosphodiester by linkage. Methylation of C is not given here. l = locked nucleic acid (LNA); d = 2'-deoxy (DNA)
# cutoff 40% applies to target mRNA inhibition; >= gives 1 (yes), < gives 0 (no)

| Item Sequence | Classification |
| --- | --- |
| GTTGATGATGCGGTTGTAG (sugars l1 d16 l2, PS) | 0 (no) |
| CTGGAAAGAAGGGGCTGTG (sugars l1 d16 l2, PS) | 0 (no) |
| CTCCAAATTAAATCCG (sugars l4 d9 l3, PS) | 0 (no) |
| AGTTGATAGTTTATCTCCT (sugars l2 d15 l2, PS) | 1 (yes) |
| GCTCTCATAATCCTAC (sugars l2 d11 l3, PS) | 1 (yes) |

* * *

Target Or Test System: DGAT2
Assay Conditions: ASO, HepG2, 0.12 µM
After the bases stand the sugars from the 5' end (letter, count) and the backbone: PS all phosphorothioate, else s phosphorothioate and o phosphodiester by linkage. Methylation of C is not given here. e = 2'-O-(2-methoxyethyl) (MOE); d = 2'-deoxy (DNA)
Metric Name: target mRNA inhibition (%)

| Item Sequence | Observed Value |
| --- | --- |
| CTGCCACCTTCCAGGGAATA (sugars e5 d10 e5, PS) | 27 |
| TGGTATCCAAAGATATAGTT (sugars e5 d10 e5, PS) | 42 |
| TTCTTGCCAGGCATGGAGCT (sugars e5 d10 e5, PS) | 54 |
| TCAGTTCACCTCCAGGACCT (sugars e5 d10 e5, PS) | 46 |
| TGGTGATGGGCTTGGAGTAG (sugars e5 d10 e5, PS) | 28 |
| GCCTGGACAAGTCCTGCCCA (sugars e3 d14 e3, PS) | 84 |
| ACCAGCTGCAAGGATGACCT (sugars e5 d10 e5, PS) | 49 |
| TGTGCTGCATCCATGTCATC (sugars e5 d10 e5, PS) | 36 |
| AAGGCCGTATGCCTGGGAAC (sugars e5 d10 e5, PS) | 25 |
| TCCGCAGGGTGACTGCATTC (sugars e5 d10 e5, PS) | 48 |
| GCCAGTTTCACAAAGCCCTT (sugars e5 d10 e5, PS) | 34 |
| AGGACCCACTGGAGCACTGA (sugars e2 d13 e5, PS) | 75 |
| CCGGAGTAGGCGGCTATGAG (sugars e5 d10 e5, PS) | 37 |
| ACAGAAAAGTGAGGCTTGGG (sugars e5 d10 e5, PS) | 40 |
| CAGAGTTATCCTCAATTCAC (sugars e5 d10 e5, PS) | 34 |
| AATAGTCTATGGTGTCCCGG (sugars e5 d10 e5, PS) | 63 |
| GTAGGGCACCAGCCCCCAGG (sugars e5 d10 e5, PS) | 23 |
| TCACTGATGACATATCCCCA (sugars e5 d10 e5, PS) | 52 |
| TCATTCTCTCCAAAGGAGTA (sugars e5 d10 e5, PS) | 18 |
| ACCCAGAGATGGTGATAAGG (sugars e5 d10 e5, PS) | 53 |
| TGGACAAGTCCTGCCCATCT (sugars e3 d14 e3, PS) | 69 |
| ATAATTTCTTTTAAATAACC (sugars e5 d10 e5, PS) | 0 |
| GAGTATAGAAATTTCACTGA (sugars e5 d10 e5, PS) | 44 |

* * *

Let's look at some sequences and their measured target mRNA inhibition.
Target Or Test System: ANGPTL2
Assay Conditions: ASO, 25 µM
After the bases stand the sugars from the 5' end (letter, count) and the backbone: PS all phosphorothioate, else s phosphorothioate and o phosphodiester by linkage. Methylation of C is not given here. l = locked nucleic acid (LNA); d = 2'-deoxy (DNA)

| Item Sequence | Target Or Test System | target mRNA inhibition |
| --- | --- | --- |
| CTAGACATACCATCTA (sugars l3 d10 l3, PS) | ANGPTL2 | 40% |
| CTGGAAAGAAGGGGCTGTG (sugars l1 d16 l2, PS) | ANGPTL2 | 30.4% |
| CCCACAATGAGACTGGT (sugars l2 d13 l2, PS) | ANGPTL2 | 30.4% |
| CAGCCAGTAAATGTTCTCCA (sugars l1 d17 l2, PS) | ANGPTL2 | 38% |
| GTTGATAGTTTATCTCC (sugars l3 d12 l2, PS) | ANGPTL2 | 88.8% |
| CCACCCATTTAGCCTTC (sugars l1 d14 l2, PS) | ANGPTL2 | 42.7% |

* * *

Target Or Test System: KRAS
Assay Conditions: ASO, A431, 2 µM
After the bases stand the sugars from the 5' end (letter, count) and the backbone: PS all phosphorothioate, else s phosphorothioate and o phosphodiester by linkage. Methylation of C is not given here. e = 2'-O-(2-methoxyethyl) (MOE); k = constrained ethyl (cEt); d = 2'-deoxy (DNA)
# cutoff 30% applies to target mRNA inhibition; >= gives MET, < gives NOT MET

| Item Sequence | Classification |
| --- | --- |
| ACTAATAGCAGTGGAA (sugars k3 d10 k3, PS) | NOT MET |
| TAATCCATTTATGTGA (sugars k3 d10 k3, PS) | MET |
| TAGTGATTAGGTCAAA (sugars kkdddddddddkdkdk, PS) | NOT MET |
| TAGGAGTCTTTATAGT (sugars k3 d10 k3, PS) | MET |
| ATAATAATCCCCATTT (sugars k3 d10 k3, PS) | NOT MET |
| CACTTCATTGTTTAAA (sugars k3 d10 k3, PS) | NOT MET |
| ATGGTGTAACATAGGT (sugars kkkddddddddkdkdk, PS) | MET |
| CTTGATTTGTCAGCAG (sugars kkkddddddddkdkdk, PS) | MET |
| TTACTTATGCAGAGAA (sugars k3 d10 k3, PS) | MET |
| TGCTGTGAAACTCTCT (sugars kkddddddddkekekk, PS) | NOT MET |
| ATGCTGTGAAACTCTC (sugars kkddddddddddkeke, PS) | MET |
| ATGGTGTAACATAGGT (sugars kdddddddddkekeke, PS) | MET |
| TTAATTACTTATGCAG (sugars k3 d10 k3, PS) | MET |
| CCATGCTGTGAAACTC (sugars k3 d10 k3, PS) | NOT MET |
| AACGAGAATGGATATT (sugars k3 d10 k3, PS) | NOT MET |
| TGATTTGTCAGCAGGA (sugars kkkddddddddkekek, PS) | MET |
| AGTGTGACTCAGTTAA (sugars kkdddddddddkdkdk, PS) | MET |
| TGCTGTGAAACTCTCT (sugars kkdddddddddkekek, PS) | NOT MET |
| CTTTTTGACAAATGGA (sugars k3 d10 k3, PS) | NOT MET |
| CCATTCAAAGTTCACA (sugars k3 d10 k3, PS) | MET |
| TGCTATAATAATCCCC (sugars k3 d10 k3, PS) | MET |
| TCCATTTATGTGACTA (sugars kddddddddddkekek, PS) | MET |
